# target-of-assay: Cytochrome P450 165B3 (Amycolatopsis orientalis)
# Sequence (Q8RN04 whole entry): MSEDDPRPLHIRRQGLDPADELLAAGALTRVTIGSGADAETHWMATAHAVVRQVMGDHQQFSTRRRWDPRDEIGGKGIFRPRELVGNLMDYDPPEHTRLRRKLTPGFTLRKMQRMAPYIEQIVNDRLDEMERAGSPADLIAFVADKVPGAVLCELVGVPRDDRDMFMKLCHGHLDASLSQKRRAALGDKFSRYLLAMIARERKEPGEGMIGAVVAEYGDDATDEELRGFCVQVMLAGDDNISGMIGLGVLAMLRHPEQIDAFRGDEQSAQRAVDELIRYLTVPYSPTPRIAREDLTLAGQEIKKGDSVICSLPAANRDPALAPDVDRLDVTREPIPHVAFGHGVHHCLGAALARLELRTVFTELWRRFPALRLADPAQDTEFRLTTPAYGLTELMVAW
pKd: −log10 of the molar value.

| line-notation | pKd |
| --- | --- |
| CN[C@H](CC(C)C)C(=O)N[C@H](Cc1ccc(O)cc1)C(=O)N[C@@H](CC(N)=O)C(=O)N[C@@H](C(=O)N[C@@H](C(=O)N[C@H](Cc1ccc(O)cc1)C(=O)O)c1ccc(O)cc1)c1ccc(O)cc1 | 4.46 |
